- test-parameters: in n-propanol, 293.15 K
metric-name: solubility (mole fraction)
Answer as a number with no unit attached.

Param item = NC(=O)c1ccccc1 ; retrieve measured solubility (mole fraction). 0.0479

* * *

- test-parameters: in isopropanol, 293.15 K
metric-name: solubility (mole fraction)
Number only, please.

Record request: solubility (mole fraction) value, item NC(=O)c1ccccc1 0.0387

* * *

- test-parameters: in acetone, 313.15 K
metric-name: solubility (mole fraction)
// no unit string in output, number only

Name the recorded solubility (mole fraction) for NC(=O)c1ccccc1 . 0.126

* * *

- test-parameters: in acetonitrile, 313.15 K
metric-name: solubility (mole fraction)
Note: the reply should be a number with no unit written.

Look at this compound and give its reported solubility (mole fraction). NC(=O)c1ccccc1 0.046
